Quick list: EC50 per entry.
- system: Melanocortin receptor 3 (Homo sapiens)
- measurement_notes: Agonist activity at EYFP-fused human MC3R expressed in HEK293 cells after 16 to 20 hrs by CRE-driven reporter assay
experimental_endpoint: EC50

>  <compound_smiles>
CSCC[C@H](NC(=O)[C@@H]1Cc2cn(nn2)C[C@H](NC(=O)[C@@H](N)CCCCN)C(=O)N[C@@H](Cc2cnc[nH]2)C(=O)N[C@H](C)C(=O)N[C@@H](CCCNC(=N)N)C(=O)N[C@@H](Cc2c[nH]c3ccccc23)C(=O)N1)C(=O)O

>  <result>
> 3000 nM

$$$$
>  <compound_smiles>
CSCC[C@H](NC(=O)[C@@H]1Cc2cn(nn2)[C@@H](CCCNC(=N)N)C(=O)N[C@@H](Cc2cnc[nH]2)C(=O)N[C@H](Cc2ccccc2)C(=O)N[C@@H](CCCNC(=N)N)C(=O)N[C@@H](Cc2c[nH]c3ccccc23)C(=O)N1)C(=O)O

>  <result>
160 nM

$$$$
>  <compound_smiles>
CSCC[C@H](NC(=O)[C@@H]1Cc2cn(nn2)C[C@H](NC(=O)[C@@H](N)CCCCN)C(=O)N[C@@H](Cc2cnc[nH]2)C(=O)N[C@H](Cc2ccccc2)C(=O)N[C@@H](CCCCN)C(=O)N[C@@H](Cc2c[nH]c3ccccc23)C(=O)N1)C(=O)O

>  <result>
> 3000 nM

$$$$
>  <compound_smiles>
CSCC[C@H](NC(=O)[C@@H]1Cc2cn(nn2)C[C@H](NC(=O)[C@@H](N)CCCCN)C(=O)N[C@@H](C)C(=O)N[C@H](Cc2ccccc2)C(=O)N[C@@H](CCCNC(=N)N)C(=O)N[C@@H](Cc2c[nH]c3ccccc23)C(=O)N1)C(=O)O

>  <result>
633 nM

$$$$
>  <compound_smiles>
CSCC[C@H](NC(=O)[C@@H]1Cc2cn(nn2)C[C@H](NC(=O)[C@@H](N)CCCCN)C(=O)N[C@@H](Cc2cnc[nH]2)C(=O)N[C@H](Cc2ccccc2)C(=O)N[C@@H](CCCNC(=N)N)C(=O)N[C@@H](Cc2c[nH]c3ccccc23)C(=O)N1)C(=O)O

>  <result>
123 nM

$$$$
>  <compound_smiles>
C[C@H](NC(=O)[C@@H]1Cc2cn(nn2)C[C@H](NC(=O)[C@@H](N)CCCCN)C(=O)N[C@@H](Cc2cnc[nH]2)C(=O)N[C@H](Cc2ccccc2)C(=O)N[C@@H](CCCNC(=N)N)C(=O)N[C@@H](Cc2c[nH]c3ccccc23)C(=O)N1)C(=O)O

>  <result>
162 nM

$$$$
>  <compound_smiles>
CSCC[C@H](NC(=O)[C@@H]1Cc2cn(nn2)C[C@H](NC(=O)[C@@H](N)CCCNC(=N)N)C(=O)N[C@@H](Cc2cnc[nH]2)C(=O)N[C@H](Cc2ccccc2)C(=O)N[C@@H](CCCNC(=N)N)C(=O)N[C@@H](Cc2c[nH]c3ccccc23)C(=O)N1)C(=O)O

>  <result>
291 nM

$$$$
>  <compound_smiles>
CSCC[C@H](NC(=O)[C@@H]1Cc2cn(nn2)C[C@H](NC(=O)[C@@H](N)CCCCN)C(=O)N[C@@H](Cc2cnc[nH]2)C(=O)N[C@H](Cc2ccccc2)C(=O)N[C@@H](CCCNC(=N)N)C(=O)N[C@@H](C)C(=O)N1)C(=O)O

>  <result>
1910 to 3000 nM

$$$$

###

- system: Melanocortin receptor 3 (Homo sapiens, UniProt P41968)
- Sequence (P41968 whole entry, the tested form may be a part): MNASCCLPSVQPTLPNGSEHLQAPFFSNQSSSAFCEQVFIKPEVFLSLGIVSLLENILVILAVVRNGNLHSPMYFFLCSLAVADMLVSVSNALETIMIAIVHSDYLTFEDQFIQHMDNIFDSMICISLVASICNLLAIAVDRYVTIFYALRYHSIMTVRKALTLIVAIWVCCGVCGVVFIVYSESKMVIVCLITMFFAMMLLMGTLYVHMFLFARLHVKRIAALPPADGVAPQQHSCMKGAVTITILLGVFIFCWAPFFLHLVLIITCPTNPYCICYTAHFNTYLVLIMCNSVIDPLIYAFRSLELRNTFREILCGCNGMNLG
- measurement_notes: Agonist activity at EYFP-fused human MC3R expressed in HEK293 cells after 16 to 20 hrs by CRE-driven reporter assay
- Type: functional, cell-based
Quick list: EC50 per entry.

>  <compound_smiles>
CSCC[C@H](NC(=O)[C@@H]1Cc2cn(nn2)C[C@H](NC(=O)[C@H](C)N)C(=O)N[C@@H](Cc2cnc[nH]2)C(=O)N[C@H](Cc2ccccc2)C(=O)N[C@@H](CCCNC(=N)N)C(=O)N[C@@H](Cc2c[nH]c3ccccc23)C(=O)N1)C(=O)O

>  <system>
Melanocortin receptor 3 (Homo sapiens, UniProt P41968)

>  <EC50>
0.0194 µM

$$$$
>  <compound_smiles>
CSCC[C@H](NC(=O)[C@@H]1Cc2cn(nn2)C[C@H](NC(=O)[C@@H](N)CCCCN)C(=O)N[C@@H](Cc2cnc[nH]2)C(=O)N[C@H](Cc2ccccc2)C(=O)N[C@@H](CCCN)C(=O)N[C@@H](Cc2c[nH]c3ccccc23)C(=O)N1)C(=O)O

>  <system>
Melanocortin receptor 3 (Homo sapiens, UniProt P41968)

>  <EC50>
> 3 µM

$$$$
>  <compound_smiles>
CSCC[C@H](NC(=O)[C@@H]1Cc2cn(nn2)C[C@H](NC(=O)[C@@H](N)CCCCN)C(=O)N[C@@H](Cc2cnc[nH]2)C(=O)N[C@H](Cc2ccccc2)C(=O)N[C@@H](C)C(=O)N[C@@H](Cc2c[nH]c3ccccc23)C(=O)N1)C(=O)O

>  <system>
Melanocortin receptor 3 (Homo sapiens, UniProt P41968)

>  <EC50>
> 3 µM

$$$$
>  <compound_smiles>
CC[C@@H](C)[C@H]1NC(=O)[C@H](Cc2cnc[nH]2)NC(=O)[C@@H](NC(=O)[C@@H](N)CCCCN)Cn2cc(nn2)C[C@@H](C(=O)N[C@@H](CCSC)C(=O)O)NC(=O)[C@H](Cc2c[nH]c3ccccc23)NC(=O)[C@H](CCCNC(=N)N)NC1=O

>  <system>
Melanocortin receptor 3 (Homo sapiens, UniProt P41968)

>  <EC50>
> 3 µM

$$$$
>  <compound_smiles>
CSCC[C@H](NC(=O)[C@@H]1Cc2cn(nn2)CCC[C@H](N)C(=O)N[C@@H](Cc2cnc[nH]2)C(=O)N[C@H](Cc2ccccc2)C(=O)N[C@@H](CCCNC(=N)N)C(=O)N[C@@H](Cc2c[nH]c3ccccc23)C(=O)N1)C(=O)O

>  <system>
Melanocortin receptor 3 (Homo sapiens, UniProt P41968)

>  <EC50>
> 3 µM

$$$$
>  <compound_smiles>
CSCC[C@H](NC(=O)[C@@H]1Cc2cn(nn2)C[C@H](NC(=O)[C@@H](N)CCCCN)C(=O)N[C@@H](Cc2cnc[nH]2)C(=O)N[C@@H](Cc2ccccc2)C(=O)N[C@@H](CCCNC(=N)N)C(=O)N[C@@H](Cc2c[nH]c3ccccc23)C(=O)N1)C(=O)O

>  <system>
Melanocortin receptor 3 (Homo sapiens, UniProt P41968)

>  <EC50>
> 3 µM

$$$$
>  <compound_smiles>
CSCC[C@H](NC(=O)[C@@H]1Cc2cn(nn2)C[C@H](NC(=O)[C@@H](N)CCCCN)C(=O)N[C@@H](Cc2cnc[nH]2)C(=O)N[C@H](Cc2ccccc2)C(=O)N[C@@H](CCCNC(=N)N)C(=O)N[C@@H](Cc2csc3ccccc23)C(=O)N1)C(=O)O

>  <system>
Melanocortin receptor 3 (Homo sapiens, UniProt P41968)

>  <EC50>
0.821 µM

$$$$
>  <compound_smiles>
CSCC[C@H](NC(=O)[C@@H]1Cc2cn(nn2)C[C@H](NC(=O)[C@@H](N)CCCCN)C(=O)N[C@@H](Cc2c[nH]c3ccccc23)C(=O)N[C@H](Cc2ccccc2)C(=O)N[C@@H](CCCNC(=N)N)C(=O)N[C@@H](Cc2cnc[nH]2)C(=O)N1)C(=O)O

>  <system>
Melanocortin receptor 3 (Homo sapiens, UniProt P41968)

>  <EC50>
> 3 µM

$$$$

###

- system: Melanocortin receptor 4 (Homo sapiens, UniProt P32245)
- Sequence (P32245 whole entry, the tested form may be a part): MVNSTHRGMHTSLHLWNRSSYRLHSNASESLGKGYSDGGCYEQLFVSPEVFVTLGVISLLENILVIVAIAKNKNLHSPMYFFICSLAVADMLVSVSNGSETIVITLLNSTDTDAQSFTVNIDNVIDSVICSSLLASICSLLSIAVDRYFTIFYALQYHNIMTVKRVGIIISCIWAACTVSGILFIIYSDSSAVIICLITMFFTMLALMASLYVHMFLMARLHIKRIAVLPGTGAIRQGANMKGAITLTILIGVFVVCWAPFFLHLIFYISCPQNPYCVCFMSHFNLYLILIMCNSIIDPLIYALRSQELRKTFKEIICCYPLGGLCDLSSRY
- measurement_notes: Agonist activity at EYFP-fused human MC4R expressed in HEK293 cells after 16 to 20 hrs by CRE-driven reporter assay
- Assay type: functional, cell-based
pEC50: −log10 of the molar value.
Quick list: pEC50 per entry.

>  <compound_smiles>
CSCC[C@H](NC(=O)[C@@H]1Cc2cn(nn2)C[C@H](NC(=O)[C@@H](N)CCCCN)C(=O)N[C@@H](Cc2cnc[nH]2)C(=O)N[C@H](Cc2ccccc2)C(=O)N[C@@H](CCCNC(=N)N)C(=O)N[C@@H](Cc2c[nH]c3ccccc23)C(=O)N1)C(=O)O

>  <system>
Melanocortin receptor 4 (Homo sapiens, UniProt P32245)

>  <readout_relation>
=

>  <pEC50>
8.74

$$$$
>  <compound_smiles>
CSCC[C@H](NC(=O)[C@@H]1Cc2cn(nn2)[C@@H](CCCNC(=N)N)C(=O)N[C@@H](Cc2cnc[nH]2)C(=O)N[C@H](Cc2ccccc2)C(=O)N[C@@H](CCCNC(=N)N)C(=O)N[C@@H](Cc2c[nH]c3ccccc23)C(=O)N1)C(=O)O

>  <system>
Melanocortin receptor 4 (Homo sapiens, UniProt P32245)

>  <readout_relation>
=

>  <pEC50>
8.49

$$$$
>  <compound_smiles>
CSCC[C@H](NC(=O)[C@@H]1Cc2cn(nn2)CCC[C@H](N)C(=O)N[C@@H](Cc2cnc[nH]2)C(=O)N[C@H](Cc2ccccc2)C(=O)N[C@@H](CCCNC(=N)N)C(=O)N[C@@H](Cc2c[nH]c3ccccc23)C(=O)N1)C(=O)O

>  <system>
Melanocortin receptor 4 (Homo sapiens, UniProt P32245)

>  <readout_relation>
=

>  <pEC50>
6.73

$$$$
>  <compound_smiles>
CC[C@@H](C)[C@H]1NC(=O)[C@H](Cc2cnc[nH]2)NC(=O)[C@@H](NC(=O)[C@@H](N)CCCCN)Cn2cc(nn2)C[C@@H](C(=O)N[C@@H](CCSC)C(=O)O)NC(=O)[C@H](Cc2c[nH]c3ccccc23)NC(=O)[C@H](CCCNC(=N)N)NC1=O

>  <system>
Melanocortin receptor 4 (Homo sapiens, UniProt P32245)

>  <readout_relation>
<

>  <pEC50>
5.52

$$$$
